Protocol text: NCI Yeast Anticancer Drug Screen. Data for the rad50EPP+ strain (AID 151);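 also: 0% = growth of vehicle-treated control cultures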
Details: S. cerevisiae rad50 mutant strain, at 100.0 µM, stronger effect = higher value
About 79,000 compounds went through this panel and 15% of them were active in at least one assay; those are over-represented in the sample as a whole.
compounds and their reported growth inhibition
Measure: growth inhibition (%)

[
  {
    "Compound": "CCCCCCCCCC/C=C\\CC(=O)O",
    "Unit abbreviation": "%",
    "Assay value": 47
  },
  {
    "Compound": "O=C1OC(/C=C/c2ccccc2)Sc2ccccc21 (stereo unspecified)",
    "Unit abbreviation": "%",
    "Assay value": 23
  },
  {
    "Compound": "CC1=Cc2ccc(C)cc2C(=O)C1=O",
    "Unit abbreviation": "%",
    "Assay value": 99
  },
  {
    "Compound": "Nc1ccc2cc(Br)c3ccccc3c2c1",
    "Unit abbreviation": "%",
    "Assay value": 26
  },
  {
    "Compound": "COc1cc(C(C)(C)C)cc(OC)c1C(O)(c1c(OC)cc(C(C)(C)C)cc1OC)c1c(OC)cc(C(C)(C)C)cc1OC",
    "Unit abbreviation": "%",
    "Assay value": 83
  },
  {
    "Compound": "CCCCCC(=O)C(C)(c1nc2n(c1O)/C(=N/C(=O)Nc1ccc(Cl)cc1)N=N2)c1nc2n(c1O)/C(=N/C(=O)Nc1ccc(Cl)cc1)N=N2",
    "Unit abbreviation": "%",
    "Assay value": 79
  },
  {
    "Compound": "BrC/C=C/C[P+](c1ccccc1)(c1ccccc1)c1ccccc1",
    "Unit abbreviation": "%",
    "Assay value": 91
  },
  {
    "Compound": "CCN(CC)c1ccc(N=Nc2cc(S(=O)(=O)O)ccc2O)c(O)c1",
    "Unit abbreviation": "%",
    "Assay value": -46
  },
  {
    "Compound": "CC[N+]1(C)CCC(O)(/C=C/c2ccc(Cl)c(Cl)c2)C(C(=O)/C=C/c2ccc(Cl)c(Cl)c2)C1 (stereo unspecified)",
    "Unit abbreviation": "%",
    "Assay value": 99
  },
  {
    "Compound": "Oc1ccc(Cc2nccc3cc(O)c(O)cc23)cc1O",
    "Unit abbreviation": "%",
    "Assay value": 33
  },
  {
    "Compound": "c1ccc(N/N=C2\\CC(c3ccccc3)Oc3ccccc32)cc1 (stereo unspecified)",
    "Unit abbreviation": "%",
    "Assay value": 50
  }
]
